SYSTEM UNDER TEST: intracellular ATR (Homo sapiens)
Construct: endogenous in cells
Sequence (Q13535 whole entry): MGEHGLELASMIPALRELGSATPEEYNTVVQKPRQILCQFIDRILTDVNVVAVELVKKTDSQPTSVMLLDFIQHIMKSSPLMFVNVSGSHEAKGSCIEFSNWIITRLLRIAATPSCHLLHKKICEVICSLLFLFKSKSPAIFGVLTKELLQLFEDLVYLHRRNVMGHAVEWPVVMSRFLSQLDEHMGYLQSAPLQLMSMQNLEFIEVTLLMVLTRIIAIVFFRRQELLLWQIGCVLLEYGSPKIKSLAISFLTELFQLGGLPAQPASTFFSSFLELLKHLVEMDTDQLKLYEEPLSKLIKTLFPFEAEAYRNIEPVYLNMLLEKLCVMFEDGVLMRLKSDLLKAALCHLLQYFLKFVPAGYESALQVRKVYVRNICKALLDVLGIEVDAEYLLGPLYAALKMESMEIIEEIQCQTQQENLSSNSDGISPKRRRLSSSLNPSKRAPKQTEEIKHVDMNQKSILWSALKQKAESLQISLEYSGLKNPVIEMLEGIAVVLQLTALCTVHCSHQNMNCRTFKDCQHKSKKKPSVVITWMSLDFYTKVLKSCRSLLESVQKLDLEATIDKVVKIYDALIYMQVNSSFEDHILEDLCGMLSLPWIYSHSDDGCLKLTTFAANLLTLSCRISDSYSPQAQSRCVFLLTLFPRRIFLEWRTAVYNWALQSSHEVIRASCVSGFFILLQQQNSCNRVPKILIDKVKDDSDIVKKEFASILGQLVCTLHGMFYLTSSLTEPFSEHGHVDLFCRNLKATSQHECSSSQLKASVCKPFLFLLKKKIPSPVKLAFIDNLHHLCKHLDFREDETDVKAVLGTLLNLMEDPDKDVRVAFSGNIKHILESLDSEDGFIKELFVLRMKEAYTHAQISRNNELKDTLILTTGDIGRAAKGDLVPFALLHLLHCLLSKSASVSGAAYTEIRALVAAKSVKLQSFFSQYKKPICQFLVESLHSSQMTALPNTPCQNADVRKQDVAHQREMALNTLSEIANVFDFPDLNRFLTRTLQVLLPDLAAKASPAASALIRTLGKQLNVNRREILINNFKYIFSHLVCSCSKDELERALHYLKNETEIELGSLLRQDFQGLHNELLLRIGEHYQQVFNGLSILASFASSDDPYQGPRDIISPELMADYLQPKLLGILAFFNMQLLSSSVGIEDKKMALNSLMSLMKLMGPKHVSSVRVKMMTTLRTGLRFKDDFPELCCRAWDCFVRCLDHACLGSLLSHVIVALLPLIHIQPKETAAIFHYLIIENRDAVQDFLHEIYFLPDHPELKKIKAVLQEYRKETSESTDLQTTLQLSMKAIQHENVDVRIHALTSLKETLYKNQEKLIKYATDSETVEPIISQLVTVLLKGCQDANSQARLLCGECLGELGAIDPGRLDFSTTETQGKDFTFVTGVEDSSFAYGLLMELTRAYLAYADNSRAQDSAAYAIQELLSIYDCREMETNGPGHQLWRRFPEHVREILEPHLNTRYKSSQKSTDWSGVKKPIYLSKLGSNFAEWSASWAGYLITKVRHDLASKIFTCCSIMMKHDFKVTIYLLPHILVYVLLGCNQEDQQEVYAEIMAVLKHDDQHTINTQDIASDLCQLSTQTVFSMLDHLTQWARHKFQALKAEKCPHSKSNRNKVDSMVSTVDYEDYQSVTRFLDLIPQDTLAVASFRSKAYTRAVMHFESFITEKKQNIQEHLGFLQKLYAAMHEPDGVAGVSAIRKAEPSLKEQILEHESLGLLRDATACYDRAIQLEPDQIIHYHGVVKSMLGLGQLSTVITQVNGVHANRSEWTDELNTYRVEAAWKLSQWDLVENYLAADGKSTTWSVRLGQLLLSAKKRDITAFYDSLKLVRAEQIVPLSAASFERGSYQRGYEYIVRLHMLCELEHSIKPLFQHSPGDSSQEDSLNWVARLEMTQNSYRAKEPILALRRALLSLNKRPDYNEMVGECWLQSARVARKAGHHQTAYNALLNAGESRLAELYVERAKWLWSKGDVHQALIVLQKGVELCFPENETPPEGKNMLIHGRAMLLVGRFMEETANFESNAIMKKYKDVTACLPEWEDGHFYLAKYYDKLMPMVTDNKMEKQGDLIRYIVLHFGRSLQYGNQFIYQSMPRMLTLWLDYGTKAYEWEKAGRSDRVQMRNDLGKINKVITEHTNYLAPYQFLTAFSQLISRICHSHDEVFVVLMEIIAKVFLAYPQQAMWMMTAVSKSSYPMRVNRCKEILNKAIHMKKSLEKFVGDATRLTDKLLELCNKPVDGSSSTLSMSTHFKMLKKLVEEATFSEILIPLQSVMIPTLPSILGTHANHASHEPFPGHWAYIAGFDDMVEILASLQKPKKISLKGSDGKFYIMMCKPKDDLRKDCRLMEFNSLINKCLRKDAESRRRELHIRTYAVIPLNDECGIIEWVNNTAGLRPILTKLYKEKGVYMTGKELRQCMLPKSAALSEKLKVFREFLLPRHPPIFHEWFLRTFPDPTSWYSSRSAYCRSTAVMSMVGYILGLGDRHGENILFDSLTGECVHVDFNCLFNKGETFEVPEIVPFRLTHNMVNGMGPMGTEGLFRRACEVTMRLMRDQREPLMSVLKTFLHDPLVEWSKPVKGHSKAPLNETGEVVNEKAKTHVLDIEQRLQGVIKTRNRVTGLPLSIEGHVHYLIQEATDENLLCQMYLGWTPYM
Sequence (Q8WXE1 whole entry partner): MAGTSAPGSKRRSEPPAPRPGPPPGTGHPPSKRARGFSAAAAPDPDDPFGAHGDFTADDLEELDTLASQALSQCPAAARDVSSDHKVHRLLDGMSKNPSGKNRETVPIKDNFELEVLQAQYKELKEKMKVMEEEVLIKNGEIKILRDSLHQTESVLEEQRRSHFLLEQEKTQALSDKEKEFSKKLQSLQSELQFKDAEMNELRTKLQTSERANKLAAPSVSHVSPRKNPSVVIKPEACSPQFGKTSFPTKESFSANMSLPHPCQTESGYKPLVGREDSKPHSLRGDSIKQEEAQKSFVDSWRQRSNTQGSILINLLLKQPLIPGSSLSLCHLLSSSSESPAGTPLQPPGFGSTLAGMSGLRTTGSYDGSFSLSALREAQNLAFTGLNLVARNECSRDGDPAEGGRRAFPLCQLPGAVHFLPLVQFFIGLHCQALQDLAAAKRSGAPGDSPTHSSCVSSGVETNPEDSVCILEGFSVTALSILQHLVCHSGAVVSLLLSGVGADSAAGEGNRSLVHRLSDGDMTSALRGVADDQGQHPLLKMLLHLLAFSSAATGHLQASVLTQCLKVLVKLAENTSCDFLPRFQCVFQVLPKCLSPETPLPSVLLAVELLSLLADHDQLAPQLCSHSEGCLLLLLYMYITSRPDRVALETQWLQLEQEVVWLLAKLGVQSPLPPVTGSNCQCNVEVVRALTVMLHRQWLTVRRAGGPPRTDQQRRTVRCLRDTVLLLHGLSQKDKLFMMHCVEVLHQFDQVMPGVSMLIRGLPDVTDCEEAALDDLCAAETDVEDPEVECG
MEASUREMENT PROTOCOL: Cellular ATR Inhibition Assay (phosphorylated H2AX immunofluorescence in hydroxyurea treated HT29 cells)
CONDITIONS: 2 mM hydroxyurea, phosphorylated H2AX Ser139
PROPERTY LABEL: pIC50
Give only the number. pIC50 is defined as minus log10 of concentration in molar units.

Input line: Recall and state the measured pIC50 for CC(C)S(=O)(=O)c1ccc(-c2cnc(N)c(-c3cc(-c4ccc(CNCC5COC5)cc4)no3)n2)cc1 [I] .
Output line: 7.80
